Target: T1, biotinylated recombinant human IL-12Rβ2 (human, UniProt Q99665 24-622, random biotinylated)
T1 construct: Recombinant protein produced in-house; also called hIL-12RB2; human IL-12RB2
T1 sequence: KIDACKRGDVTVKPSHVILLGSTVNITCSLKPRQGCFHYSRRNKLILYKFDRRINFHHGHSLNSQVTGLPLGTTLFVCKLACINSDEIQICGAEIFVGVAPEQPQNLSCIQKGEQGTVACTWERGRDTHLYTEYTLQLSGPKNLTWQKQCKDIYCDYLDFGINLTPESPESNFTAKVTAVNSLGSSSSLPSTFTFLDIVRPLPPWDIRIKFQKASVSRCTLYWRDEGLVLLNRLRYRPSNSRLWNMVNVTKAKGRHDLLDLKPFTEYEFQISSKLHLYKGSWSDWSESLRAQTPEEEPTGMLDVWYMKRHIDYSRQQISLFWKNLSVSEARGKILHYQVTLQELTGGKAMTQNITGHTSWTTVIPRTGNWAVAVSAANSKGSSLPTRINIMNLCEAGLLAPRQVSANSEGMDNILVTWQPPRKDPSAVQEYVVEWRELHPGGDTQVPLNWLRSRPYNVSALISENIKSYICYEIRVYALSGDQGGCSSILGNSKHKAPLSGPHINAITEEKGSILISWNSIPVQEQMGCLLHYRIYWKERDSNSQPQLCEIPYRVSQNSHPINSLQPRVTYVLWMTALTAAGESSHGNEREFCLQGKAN
Assay: BLI, P.E., off-rate ranking
Label Y when koff is strictly below 0.004 s⁻¹; at or above that, label N.

Answered examples (7):
anti-IL-12Rβ2 VHH clone 2CRH80 (clone ID 20371) (VHH, not shown: small tags and cut ends, periplasmic extract) VHH: QVQLQESGGGLVQPGGSLRLSCAASGFTFSTSGMHWFRQAPGKGLEWVSSIGIIVGSSYYASSVKGRFTISRDNAKNTLYLHMNSLKSEDTAVYYCSKDVTGSSRGQGTQVTVSS
Y
anti-IL-12Rβ2 VHH clone 2CRH62 (clone ID 20368) (VHH, not shown: small tags and cut ends, periplasmic extract) VHH: QVQLQESGGGLVQPGGSLRLSCVESGRTFTVYDMGWFRQAPGKEREIVAAISADGATSIYQDSVKGRFTISRDNDAKNTVYLQMNSLKPEDTAVYYCAAGRSLIYNLYRANNTDYWGQGTQVTVSS
N
anti-IL-12Rβ2 VHH clone 3CRHS9 (clone ID 20415) (VHH, not shown: small tags and cut ends, periplasmic extract) VHH: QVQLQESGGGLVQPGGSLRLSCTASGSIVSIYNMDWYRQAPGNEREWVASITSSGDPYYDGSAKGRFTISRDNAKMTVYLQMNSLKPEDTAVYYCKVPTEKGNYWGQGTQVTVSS
Y
anti-IL-12Rβ2 VHH clone 3CRHS3 (clone ID 20414) (VHH, not shown: small tags and cut ends, periplasmic extract) VHH: QVQLQESGGGLVQPGGSLRLSCTASGSIFSIYNMDWYRQAPGNQREWVASITSSGDPYYDASVKGRFTISRDSAKMTVYLQMNSLKPEDTAVYYCKLPTEKGNYWGQGTQVTVSS
Y
anti-IL-12Rβ2 VHH clone 3CAHS39 (clone ID 20393) (VHH, not shown: small tags and cut ends, periplasmic extract) VHH: QVQLQESGGGLVQAGGSLRLSCAASGRTINAYIMGWFRQAPGKEREFVAAVSGSGGSTYYADSVKGRFTISRDNAKNTVNLQMDNLRSEDTDVYYCAATYESVYLQNPGQYDYWGQGTQVTVSS
N
anti-IL-12Rβ2 VHH clone 3CRH68 (clone ID 20388) (VHH, not shown: small tags and cut ends, periplasmic extract) VHH: QVQLQESGGGLVQPGGSLRLSCTASGSILSIYNMDWYRQVPGNQREWVASITPSGDPYYDGSVKGRFTISRDNAKMMVYLQMNSLKPEDTAVYYCKVPTEKGNYWGQGTQVTVSS
N
anti-IL-12Rβ2 VHH clone 3CRHS51 (clone ID 20421) (VHH, not shown: small tags and cut ends, periplasmic extract) VHH: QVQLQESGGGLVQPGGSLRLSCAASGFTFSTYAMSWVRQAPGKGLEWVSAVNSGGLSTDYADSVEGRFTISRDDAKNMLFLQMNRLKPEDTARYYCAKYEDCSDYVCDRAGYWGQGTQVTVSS
N

Then this binder:
Ask: Please let me know if anti-IL-12Rβ2 VHH clone 3CRH43 (clone ID 20382) (VHH, not shown: small tags and cut ends, periplasmic extract) VHH: QVQLQESGGGSVQPGGSLRLSCAASGFTFSTSGMHWFRQAPGKGLEWVSSIGIIVDSSYYASSVKGRFTISRDNAKNIVYLQMNSLKSEDTAVYYCSKDPTGSSRGQGTQVTVSS shows koff below 0.004 s⁻¹.
Reply: Y
